Origin of values: ChEMBL document CHEMBL4270577

Tested on: Hs-578T
Assay: Growth inhibition of human Hs 578T cells at 10 uM incubated for 48 hrs by sulforhodamine B assay relative to control
Assay type: functional
Settings: read-out: GI
Known inhibition of growth at 10 µM of a selection of compounds
Measured Metric: inhibition of growth at 10 µM (%)

smiles_text=Clc1ccc(-c2cn3nc(-c4ccccc4)nc3s2)cc1 system_name=Hs-578T measurement=40
smiles_text=COc1ccc(-c2nc3sc(-c4ccc(Cl)cc4)cn3n2)cc1 system_name=Hs-578T measurement=73
smiles_text=C/C(=N/O)c1ccc(NC(=O)Cn2nc(-c3ccccc3)nc2N)cc1 system_name=Hs-578T measurement=7.41
smiles_text=COc1cc(-c2nc3sc(-c4ccccc4)cn3n2)cc(OC)c1OC system_name=Hs-578T measurement=26
smiles_text=CC(=O)c1ccc(NC(=O)Cn2nc(-c3ccc(Cl)cc3)nc2N)cc1 system_name=Hs-578T measurement=6.29
smiles_text=CC(=O)c1ccc(NC(=O)Cn2nc(C(F)(F)F)nc2N)cc1 system_name=Hs-578T measurement=7.42
smiles_text=c1ccc(-c2nc3sc(-c4ccccc4)cn3n2)cc1 system_name=Hs-578T measurement=9
smiles_text=COc1cc(-c2nc(N)n(CC(=O)Nc3ccc(/C(C)=N\O)cc3)n2)cc(OC)c1OC system_name=Hs-578T measurement=17.9
smiles_text=C/C(=N\O)c1ccc(NC(=O)Cn2nc(-c3ccc(Cl)cc3)nc2N)cc1 system_name=Hs-578T measurement=11.2
smiles_text=COc1ccc(-c2nc3sc(-c4ccccc4)cn3n2)cc1 system_name=Hs-578T measurement=40

###

Tested on: KM12
Test: Growth inhibition of human KM12 cells at 10 uM incubated for 48 hrs by sulforhodamine B assay relative to control
Type: functional
Settings: KM12, 48 h, read-out: GI
Measured Metric: inhibition of growth at 10 µM (%)

smiles_text=COc1cc(-c2nc(N)n(CC(=O)Nc3ccc(/C(C)=N\O)cc3)n2)cc(OC)c1OC measured_metric="inhibition of growth at 10 µM" result_units=% measurement=2.75
smiles_text=COc1ccc(-c2nc3sc(-c4ccc(Cl)cc4)cn3n2)cc1 measured_metric="inhibition of growth at 10 µM" result_units=% measurement=45.3
smiles_text=COc1ccc(-c2nc3sc(-c4ccccc4)cn3n2)cc1 measured_metric="inhibition of growth at 10 µM" result_units=% measurement=70
smiles_text=COc1cc(-c2nc3sc(-c4ccccc4)cn3n2)cc(OC)c1OC measured_metric="inhibition of growth at 10 µM" result_units=% measurement=14
smiles_text=c1ccc(-c2nc3sc(-c4ccccc4)cn3n2)cc1 measured_metric="inhibition of growth at 10 µM" result_units=% measurement=18
smiles_text=Clc1ccc(-c2cn3nc(-c4ccccc4)nc3s2)cc1 measured_metric="inhibition of growth at 10 µM" result_units=% measurement=30

###

System: HL-60(TB)
Experiment: Growth inhibition of human HL-60(TB) cells at 10 uM incubated for 48 hrs by sulforhodamine B assay relative to control
Format: functional
Settings: HL-60, 48 h, read-out: GI
Label Satisfied when inhibition of growth at 10 µM is at or above 20%; otherwise label Not satisfied.

smiles_text=COc1cc(-c2nc3sc(-c4ccccc4)cn3n2)cc(OC)c1OC answer_label=Satisfied
smiles_text=Clc1ccc(-c2cn3nc(-c4ccccc4)nc3s2)cc1 answer_label="Not satisfied"
smiles_text=COc1ccc(-c2nc3sc(-c4ccccc4)cn3n2)cc1 answer_label=Satisfied
smiles_text=c1ccc(-c2nc3sc(-c4ccccc4)cn3n2)cc1 answer_label=Satisfied
smiles_text=COc1cc(-c2nc(N)n(CC(=O)Nc3ccc(/C(C)=N\O)cc3)n2)cc(OC)c1OC answer_label="Not satisfied"
smiles_text=CC(=O)c1ccc(NC(=O)Cn2nc(C(F)(F)F)nc2N)cc1 answer_label="Not satisfied"
